B1: PhoQ; a variant is named by its letters at X, in order, P23837 (parent)
chain: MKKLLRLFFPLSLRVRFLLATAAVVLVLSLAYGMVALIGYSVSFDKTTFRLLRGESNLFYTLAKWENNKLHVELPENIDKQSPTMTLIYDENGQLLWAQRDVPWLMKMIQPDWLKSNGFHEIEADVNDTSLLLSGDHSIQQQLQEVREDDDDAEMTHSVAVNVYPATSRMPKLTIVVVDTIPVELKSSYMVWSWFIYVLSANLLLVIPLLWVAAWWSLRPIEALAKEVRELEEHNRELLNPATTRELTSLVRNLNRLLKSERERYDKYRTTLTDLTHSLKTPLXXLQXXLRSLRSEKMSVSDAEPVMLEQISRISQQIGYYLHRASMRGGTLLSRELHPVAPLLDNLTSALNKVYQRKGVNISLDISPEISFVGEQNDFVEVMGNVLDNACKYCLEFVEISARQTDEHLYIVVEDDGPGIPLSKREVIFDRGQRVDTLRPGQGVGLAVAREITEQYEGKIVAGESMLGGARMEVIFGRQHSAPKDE

Variants of: B1
Test: enrichment ratio after two sorts for PhoP signalling (ratio (wild type AVST 3.29)); higher = more functional
Conditions: with PhoP (E. coli)
In all, about 140,000 sequences were measured (“enrichment ratio after two sorts for PhoP signalling”: median about 0, highest 2% from about 11 on). For the sample, the highest values were picked, then their nearest neighbours and some sequences at random.
In this section we review reported enrichment ratio values for a set of variants.
Just the number.

Mutation Notation	enrichment ratio
SKMT	10.8
THGC	5.27
ACCS	2.23
ASIY	3.82
SQLF	12.6

Qu. I am curious: what enrichment ratio value has been reported for `ACCC` ?
Ans. 34.1

Qu. enrichment ratio for `SRMM` ?
Ans. 1.64

Qu. Dear colleague, I am looking for the recorded enrichment ratio of the following variant: `SAMM`
Ans. 12.7

Qu. What does the record list as enrichment ratio for `GTLF` ?
Ans. 11.4

Qu. Could you share which enrichment ratio value was measured for `ACCI` ?
Ans. 26.9

Qu. Suppose we examine the variant `LCMM` ; what enrichment ratio value has been reported?
Ans. 26.9

Qu. Query: enrichment ratio; subject: `ATLF`
Ans. 13.9

Qu. # get_value(readout='enrichment ratio', item= `TMGM` )
Ans. 3.21

Qu. What does the data say about its enrichment ratio? Entry: `ACCA`
Ans. 7.21

From: a collection of fitness landscapes (doi:10.1126/science.1257360)
